Value source: ChEMBL document CHEMBL4002623

System: Escherichia coli
Experiment: Antibacterial activity against extended-spectrum beta-lactamase-negative Escherichia coli ATCC 25922 by agar dilution method
Type: functional
So I've got a bunch of compounds here, and I need their MIC values.

CCCNC(=N)c1ccc2cc(-c3ccc(Oc4ccc(-c5cc6ccc(C(=N)NCCC)cc6[nH]5)cc4)cc3)[nH]c2c1: > 128 µg/mL

// for each compound in input: emit MIC
1. C[C@H]1COc2c(N3CCN(C)CC3)c(F)cc3c(=O)c(C(=O)O)cn1c23.C[C@H]1COc2c(N3CCN(C)CC3)c(F)cc3c(=O)c(C(=O)O)cn1c23.O
2. N=C(NC1CCC1)c1ccc2cc(-c3ccc(Oc4ccc(-c5cc6ccc(C(=N)NC7CCC7)cc6[nH]5)cc4)cc3)[nH]c2c1
3. CC1CCN(C(=N)c2ccc3cc(-c4ccc(Oc5ccc(-c6cc7ccc(C(=N)N8CCC(C)CC8)cc7[nH]6)cc5)cc4)[nH]c3c2)CC1

0.03 to 0.06 µg/mL
> 128 µg/mL
> 128 µg/mL
